System: Tubulin free of microtubule-associated proteins
Experiment: Tubulin Assembly (microtubule assembly; protein concentration of the supernatant)
Format: biochemical, bovine
Details: concentration which reduces the supernatant protein concentration by 50%; tubulin 1 mg/ml, 37° C., 15 minutes, PEM buffer pH 6.9
Assign labels as follows, please: satisfied for Tubulin Assembly ED50 below 1 µg/mL; not satisfied for Tubulin Assembly ED50 equal to or exceeding 1 µg/mL.

Worked examples follow.
1. CC(=O)O[C@@]12CO[C@@H]1C[C@H](O[C@@H](CO)OCCO)[C@@]1(C)C(=O)[C@H](O)C3=C(C)[C@@H](OC(=O)[C@H](O)[C@@H](NC(=O)c4ccccc4)c4ccccc4)C[C@@](O)([C@@H](OC(=O)c4ccccc4)[C@H]21)C3(C)C | not satisfied
2. CC(=O)O[C@H]1C(=O)[C@]2(C)[C@@H](O[C@@H]3OCC(O)OC3O)C[C@H]3OC[C@@]3(OC(C)=O)[C@H]2[C@H](OC(=O)c2ccccc2)[C@]2(O)C[C@H](OC(=O)[C@H](O)[C@@H](NC(=O)c3ccccc3)c3ccccc3)C(C)=C1C2(C)C (stereo partly drawn) | satisfied
3. C/C=C(\C)C(=O)N[C@@H](c1ccccc1)[C@@H](O)C(=O)O[C@H]1C[C@@]2(O)[C@@H](OC(=O)c3ccccc3)[C@@H]3[C@]4(OC(C)=O)CO[C@@H]4C[C@H](O[C@@H]4OCC(O)OC4O)[C@@]3(C)C(=O)[C@H](O)C(=C1C)C2(C)C (stereo partly drawn) | satisfied
4. CC(=O)O[C@H]1C(=O)[C@@]2(C)[C@H]([C@H](OC(=O)c3ccccc3)[C@]3(O)C[C@H](OC(=O)[C@H](O)[C@@H](NC(=O)c4ccccc4)c4ccccc4)C(C)=C1C3(C)C)[C@]1(OC(C)=O)CO[C@@H]1C[C@@H]2O | not satisfied
5. CCCCCC(=O)N[C@@H](c1ccccc1)[C@@H](O)C(=O)O[C@H]1C[C@@]2(O)[C@@H](OC(=O)c3ccccc3)[C@@H]3[C@]4(OC(C)=O)CO[C@@H]4C[C@H](O[C@@H]4OCC(O)OC4O)[C@@]3(C)C(=O)[C@H](O)C(=C1C)C2(C)C (stereo partly drawn) | not satisfied

--- query ---
For this compound, is Tubulin Assembly ED50 lower than 1 µg/mL? CC(=O)O[C@@]12CO[C@@H]1C[C@H](O[C@@H]1OCC(O)OC1O)[C@@]1(C)C(=O)[C@H](O)C3=C(C)[C@@H](OC(=O)[C@H](O)[C@@H](NC(=O)c4ccccc4)c4ccccc4)C[C@@](O)([C@@H](OC(=O)c4ccccc4)[C@H]21)C3(C)C (stereo partly drawn) satisfied
